# Test system: Acinetobacter baumannii ATCC17961
# PROTOCOL NOTES: Antimicrobial susceptibility testing: 90% growth inhibitory concentration (IC90) determination, Iso-Sensitest broth
# Format: cell-based
# STUDY CONDITIONS: Acinetobacter baumannii, ATCC17961, 90% growth inhibitory concentration, Acinetobacter baumannii ATCC17961, Iso-Sensitest broth; read-out: ATCC 17961 IC90
Counter-ions that a name gives are not always drawn.
RESULT TYPE: IC90 (µM)

Here is how some compounds turned out for IC90.
Cn1c(-c2ccc(OC(F)F)c(F)c2F)cnc1C(=O)Nc1ccc(C(=O)N2CCC(C(=O)N3CC[C@H](N)C3)CC2)c(Cl)c1 [Example 46, trifluoroacetate] | 0.07
COCCOc1ccc(-c2cnc(C(=O)Nc3ccc(C(=O)N4CCN(C(=O)C5CCNCC5)CC4)c(Cl)c3)n2C)c(F)c1F [Example 255, formate] | 0.59
Cn1c(-c2ccc(OC(F)F)c(F)c2F)cnc1C(=O)Nc1ccc(C(=O)N2CCC(C(=O)NC[C@H]3CCNC3)CC2)c(Cl)c1 [Example 48, trifluoroacetate] | 0.04

(1) COc1ccc(-c2cnc(C(=O)Nc3ccc(C(=O)N4CCC(NC(=O)[C@@H]5CCNC5)C4)c(Cl)c3)n2C)c(F)c1F (stereo partly drawn) [Example 109, formate]
(2) COc1ccc(-c2cnc(C(=O)Nc3ccc(C(=O)N4CCN(C(=O)C[C@H]5CCNC5)CC4)c(Cl)c3)n2C)c(F)c1F [Example 153, formate]
So which one has the bigger IC90 here, 1 or 2 ? API: response body contains the label of the selected item. 1
(1: 0.15 µM, 2: 0.06 µM)

(I) COc1ccc(-c2cnc(C(=O)Nc3ccc(C(=O)N4CC5(CNC5)C4)c(Cl)c3)n2C)c(F)c1F [Example 42, trifluoroacetate]
(II) COc1ccc(-c2cnc(C(=O)Nc3ccc(C(=O)N4CCC(C(=O)N[C@H]5CCNC5)CC4)c(Cl)c3)n2C)c(F)c1F [Example 58, formate]
Between these two entries, I and II , state which has the higher IC90. Refer to your chosen item by its label in the answer. I

(A) COc1ccc(-c2cnc(C(=O)Nc3ccc(C(=O)N4CC5(CC(C(=O)N6CCN[C@@H](CO)C6)C5)C4)c(Cl)c3)n2C)c(F)c1F [Example 41]
(B) COc1ccc(-c2cnc(C(=O)Nc3ccc(C(=O)N4CCN(C(=O)C[C@@H]5CCNC5)CC4)c(Cl)c3)n2C)c(F)c1F [Example 194, formate]
(C) Cn1c(-c2ccc(OCF)c(F)c2F)cnc1C(=O)Nc1ccc(C(=O)N2CCN(C(=O)C[C@@H]3CCCN3)CC2)c(Cl)c1 [Example 157, formate]
// ascending sort on recorded IC90 Return value: ordered labels per request. C, B, A

(P) Cn1c(-c2ccc(OC(F)F)c(F)c2F)cnc1C(=O)Nc1ccc(C(=O)N2CCN(C(=O)[C@@H]3C[C@@H](O)CN3)CC2)c(Cl)c1 [Example 163, formate]
(Q) Cn1c(-c2ccc(OCC#N)c(F)c2F)cnc1C(=O)Nc1ccc(C(=O)N2CCN(C(=O)N[C@H]3CNC[C@@H]3O)CC2)c(Cl)c1 [Example 282]
Between P and Q , which one shows the smaller IC90 number? Output the label that corresponds to your choice. P
